Experiment: protein stability index of a GFP-peptide fusion (GPS, HEK-293T) (PSI 1-6); higher = more stable;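 note: 24-mer peptide tiles fused after GFP, lentivirally expressed, FACS-sorted into six equal bins by GFP/DsRed ratio, decoded by Illumina sequencing, PSI is the read-weighted mean bin number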
Details: treatment: DMSO; c terminus: a fixed tail appended
measure name: protein stability index
Would you mind answering with just the numeric figure?

{"seq text": "GHGSHSFIYYENMLLGVPRLRQLK [PKD2L1]", "measure name": "protein stability index", "test value": 2.17}
{"seq text": "SFVDKLLDLMPRLMTSKPAEVVKI [INTS4]", "measure name": "protein stability index", "test value": 2.73}
{"seq text": "PQRYPACAQMLPPNLSPHAPWNYH [TRAF3IP2]", "measure name": "protein stability index", "test value": 2.31}
{"seq text": "LAMLNAVTEDLRLKDWEHSIALRN [SCARA5]", "measure name": "protein stability index", "test value": 2.86}

Query: Note protein stability index for the sequence shown: SVNICGMNEHPVCSRTWTNRLCHQ [SPAG8]
Reply: 2.29

Query: Note protein stability index for the sequence shown: LLAQARDEAQGACLQQKQVVAEAQ [LRRC45]
Reply: 4.85

Query: Note protein stability index for the sequence shown: EHGPSPGQDTFCQGKADGLYPNPR [CHIT1]
Reply: 4.38

Query: Note protein stability index for the sequence shown: FHYIPGTDILDLENQRENLEQPFL [PLEKHN1]
Reply: 2.92

Query: Note protein stability index for the sequence shown: ERETEATRGRGGLLRDHIPRGKEE [MOG]
Reply: 5.38

These measurements were taken from the supplement of paper PMC10567573.
